Data provenance: PubChem BioAssay (NCI)

Tested on: SF-295 CNS
Experiment: NCI-60 one-dose screen, 48 h
Conditions: 10 µM unless noted
This is part of a sample that, as a whole, favours compounds with a hit. Of some 83,000 tested, about 20% had one in any assay. Activity calls are given as the source filed them. How the source made its calls: active means growth percent below 10; inactive means the rest.
Labels: T for active, F for inactive

[
  {
    "MOLECULE": "C#CCOc1ccc(C2=NN(C)C3N=C(Cl)c4ncn(C)c4N23)cc1OCC#C (centres undefined)",
    "CLASS LABEL": "F"
  },
  {
    "MOLECULE": "COc1cccc(/C=C/C(=O)/C=C(/C=C/c2cccc(OC)c2OC)OB(F)F)c1OC",
    "CLASS LABEL": "F"
  },
  {
    "MOLECULE": "CCN1C(=O)N(CC)C2C1NN=c1s/c(=C\\c3ccc(F)cc3)c(=O)n12 (centres undefined)",
    "CLASS LABEL": "F"
  },
  {
    "MOLECULE": "COc1cc(-c2ccc(-c3ccc(C(=N)N)s3)s2)cc(OC)c1OC",
    "CLASS LABEL": "F"
  },
  {
    "MOLECULE": "COc1cc(/C=C2\\CN(S(=O)(=O)c3ccc(C)cc3)C/C(=C\\c3cc(CN4CCCC4)c(O)c(OC)c3)C2=O)cc(CN2CCCC2)c1O",
    "CLASS LABEL": "T"
  },
  {
    "MOLECULE": "CCCCN(CCC#N)C(N)=O",
    "CLASS LABEL": "F"
  },
  {
    "MOLECULE": "Oc1c(Cl)cc(Cl)c2ccc(CN3CCNCC3)nc12",
    "CLASS LABEL": "F"
  },
  {
    "MOLECULE": "COc1ccc(NC(=O)c2sc3nc(C)c(C(=O)c4ccccc4)cc3c2N)cc1",
    "CLASS LABEL": "F"
  },
  {
    "MOLECULE": "Cn1cc(-c2ccc3c(Nc4cccc(NC(=O)Nc5cccc(F)c5)c4)ncnc3c2)cn1",
    "CLASS LABEL": "T"
  },
  {
    "MOLECULE": "COc1cccc(/C=C2\\CCc3ccccc3C2=O)c1",
    "CLASS LABEL": "F"
  },
  {
    "MOLECULE": "CS(=O)(=O)c1ccc(/C(=N/NC(N)=S)c2ccc(F)cc2)cc1",
    "CLASS LABEL": "F"
  },
  {
    "MOLECULE": "COc1cc(-c2c(-c3ccccc3)c[nH]c2C(=O)NCCCO)c(OC)c2c1OCO2",
    "CLASS LABEL": "F"
  },
  {
    "MOLECULE": "COc1ccc(-n2c(=O)n(-c3ccc(-c4nc5ccc(F)cc5s4)cc3)c(=O)c3cccnc32)cc1",
    "CLASS LABEL": "F"
  },
  {
    "MOLECULE": "Cc1cccc(C)c1NC(=O)Nc1ccccc1",
    "CLASS LABEL": "F"
  },
  {
    "MOLECULE": "O=C(O)c1cc2ccccc2s1",
    "CLASS LABEL": "F"
  },
  {
    "MOLECULE": "O=C1/C(=C/c2ccc(-c3ccc(Cl)cc3)o2)SC(=S)N1CCc1ccc(O)cc1",
    "CLASS LABEL": "F"
  },
  {
    "MOLECULE": "CCN1C(=O)N(CC)C2C1NN=c1s/c(=C\\c3ccccc3)c(=O)n12 (centres undefined)",
    "CLASS LABEL": "T"
  },
  {
    "MOLECULE": "CC/C(=C(/c1ccc(Cl)cc1)c1ccc(OCCN(CC)CC)cc1)c1ccc(OC)cc1",
    "CLASS LABEL": "F"
  },
  {
    "MOLECULE": "COc1ccccc1NC(=O)n1c(=O)cc(C)c2ccc(O)cc21",
    "CLASS LABEL": "F"
  },
  {
    "MOLECULE": "N/C(=N\\c1nc2ccccc2s1)NC(=O)Nc1ccccc1",
    "CLASS LABEL": "F"
  },
  {
    "MOLECULE": "[2H]C([2H])([2H])Oc1ccc(/C=C/C(=O)/C=C(/C=C/c2ccc(OC([2H])([2H])[2H])c(OC([2H])([2H])[2H])c2OC([2H])([2H])[2H])OB(F)F)c(OC([2H])([2H])[2H])c1OC([2H])([2H])[2H]",
    "CLASS LABEL": "F"
  },
  {
    "MOLECULE": "COc1ccccc1-c1nc2ccc3[nH]ncc3c2c2c1CCCC2",
    "CLASS LABEL": "F"
  },
  {
    "MOLECULE": "O=C(NCCN1CCOCC1)c1cncnc1Nc1ccc2c(ccn2Cc2ccccn2)c1",
    "CLASS LABEL": "F"
  },
  {
    "MOLECULE": "Cc1cc2c(C(C)C)c(O)c(O)c(/C=N/O)c2c(O)c1-c1c(C)cc2c(C(C)C)c(O)c(O)c(/C=N/O)c2c1O",
    "CLASS LABEL": "F"
  },
  {
    "MOLECULE": "C=C1CC[C@@H]2[C@](C)(COC(C)=O)[C@H](OC(C)=O)CC[C@@]2(C)[C@@H]1CC(Nc1ccc(S(=O)(=O)Nc2nccc(C)n2)cc1)C1=CCOC1=O (some centres undefined)",
    "CLASS LABEL": "F"
  },
  {
    "MOLECULE": "CN1CCN(Cc2ccc(NC(=O)c3cncc(C#Cc4c(N)ncc5cc(F)ccc45)c3)cc2C(F)(F)F)CC1",
    "CLASS LABEL": "F"
  },
  {
    "MOLECULE": "COC(=O)[C@@H](Cc1c[nH]c2ccccc12)NC(=O)[C@H](Cc1ccccc1)NCc1ccncc1",
    "CLASS LABEL": "F"
  },
  {
    "MOLECULE": "CC(C)(C)c1ccc(C(=O)Nc2sc3c(c2C#N)CCC(=O)C3)cc1",
    "CLASS LABEL": "F"
  },
  {
    "MOLECULE": "O=C(/C=C/c1ccco1)c1ccc(Nc2ccnc3cc(Cl)ccc23)cc1",
    "CLASS LABEL": "F"
  }
]
